- MEASUREMENT_NOTES: Inhibition of Dengue virus 2 NS5 polymerase-mediated RNA synthesis expressed in Escherichia coli Rosetta pLac1 cells assessed as [3H]GTP incorporation after 5 mins by scintillation counting
- Set-up: species or system dengue virus type 2
- ASSAY_CONDITIONS: read-out: IC50
pIC50: −log10 of the molar value.
Given measured pIC50, output Satisfied if it is greater than or equal to 5 and Not satisfied if not.

Task: Threshold query (pIC50 >= 5) on O=C(O)CCC/C=C/C(c1ccccc1)c1c(O)c2c(c(C(/C=C/CCCC(=O)O)c3ccccc3)c1O)OC(c1ccccc1)CC2=O (racemic)
Output: Satisfied

Task: Determine whether measured pIC50 meets or exceeds 5 for O=C(O)CCC/C=C/C(c1ccccc1)c1c(O)cc2c(c1O)C(=O)CC(c1ccccc1)O2 (racemic)
Output: Not satisfied

Task: Does the reported pIC50 for O=C(O)CCC[C@H](/C=C/c1ccccc1)c1c(O)cc2c(c1O)C(=O)C[C@@H](c1ccccc1)O2 [CHARTACEONE A3] fall at or above the 5 mark?
Output: Not satisfied

Task: Answer whether pIC50 of O=C(O)CCC[C@H](/C=C/c1ccccc1)c1c(O)cc2c(c1O)C(=O)C[C@H](c1ccccc1)O2 is greater than or equal to 5.
Output: Not satisfied

Task: Hi team, for O=C(O)CCC/C=C/C(c1ccccc1)c1c(O)c(C(/C=C/c2ccccc2)CCCC(=O)O)c(O)c2c1OC(c1ccccc1)CC2=O (racemic) , is the recorded pIC50 at or above 5?
Output: Satisfied

Task: Record Nc1nc2c(ncn2[C@@H]2O[C@H](COP(=O)(O)OP(=O)(O)OP(=O)(O)O)C[C@H]2O)c(=O)[nH]1 ; criterion: pIC50 no lower than 5. Met?
Output: Satisfied

Task: Is pIC50 for O=C(O)CCC/C=C/C(c1ccccc1)c1c(O)c2c(c(C(/C=C/c3ccccc3)CCCC(=O)O)c1O)OC(c1ccccc1)CC2=O (racemic) at or above 5?
Output: Satisfied

Task: For this compound, is measured pIC50 5 or higher? O=C(O)CCCC(/C=C/c1ccccc1)c1c(O)c2c(c(C(/C=C/c3ccccc3)CCCC(=O)O)c1O)OC(c1ccccc1)CC2=O (racemic)
Output: Satisfied

Task: Say whether O=C(O)CCCC(/C=C/c1ccccc1)c1c(O)cc2c(c1O)C(=O)CC(c1ccccc1)O2 (racemic) shows pIC50 of 5 or more.
Output: Not satisfied

* * *

Field: inhibition at 10 ug/ml. Provide a value for each of the compounds that follow.
- MEASUREMENT_NOTES: Growth inhibition of human KB cells at 10 ug/ml
- Type: cell-based
- ASSAY_CONDITIONS: read-out: GI
Give the value in % but do not write % after it.

Task: Consider the compound O=C(O)CCC/C=C/C(c1ccccc1)c1c(O)cc2c(c1O)C(=O)CC(c1ccccc1)O2 (racemic) . State its measured inhibition at 10 ug/ml.
Output: 0

Task: For O=C(O)CCC/C=C/C(c1ccccc1)c1c(O)c2c(c(C(/C=C/c3ccccc3)CCCC(=O)O)c1O)OC(c1ccccc1)CC2=O (racemic) , write its inhibition at 10 ug/ml.
Output: 0

Task: Give me measured inhibition at 10 ug/ml, please, for this compound: O=C(O)CCCC(/C=C/c1ccccc1)c1c(O)c2c(c(C(/C=C/c3ccccc3)CCCC(=O)O)c1O)OC(c1ccccc1)CC2=O (racemic)
Output: 0

Task: Complete the entry with inhibition at 10 ug/ml for O=C1C[C@@H](c2ccccc2)Oc2cc(O)cc(O)c21 [PINOCEMBRIN]
Output: 0

Task: Answer with the recorded inhibition at 10 ug/ml of O=C(O)CCC[C@@H](/C=C/c1ccccc1)c1c(O)cc2c(c1O)C(=O)C[C@@H](c1ccccc1)O2 [CHARTACEONE A4] only.
Output: 6

Task: Specify reported inhibition at 10 ug/ml for the compound shown: O=C(O)CCC[C@H](/C=C/c1ccccc1)c1c(O)cc2c(c1O)C(=O)C[C@H](c1ccccc1)O2
Output: 0

Task: Dear colleague, please send me the reported inhibition at 10 ug/ml for O=C(O)CCC[C@@H](/C=C/c1ccccc1)c1c(O)cc2c(c1O)C(=O)C[C@H](c1ccccc1)O2 when you can.
Output: 11

Task: Supply measured inhibition at 10 ug/ml of O=C(O)CCCC(/C=C/c1ccccc1)c1c(O)cc2c(c1O)C(=O)CC(c1ccccc1)O2 (racemic) in your reply.
Output: 3.2

Task: Return reported inhibition at 10 ug/ml. Input compound: O=C(O)CCC/C=C/C(c1ccccc1)c1c(O)c2c(c(C(/C=C/CCCC(=O)O)c3ccccc3)c1O)OC(c1ccccc1)CC2=O (racemic)
Output: 0

Task: Identify the reported inhibition at 10 ug/ml for the following entry. O=C(O)CCC[C@H](/C=C/c1ccccc1)c1c(O)cc2c(c1O)C(=O)C[C@@H](c1ccccc1)O2 [CHARTACEONE A3]
Output: 0

Task: # return recorded inhibition at 10 ug/ml for entry O=C(O)CCC/C=C/C(c1ccccc1)c1c(O)c(C(/C=C/c2ccccc2)CCCC(=O)O)c(O)c2c1OC(c1ccccc1)CC2=O (racemic)
Output: 0
